biological target: Tau-RD3 (Tau repeat domain 3) (Homo sapiens); test: Tau disaggregation test by thioflavin-T assay; assay type: biochemical; conditions: 35 μM Tau-RD3 aggregated 24 hours, then compound 0-500 μM for 48 hours at 37° C.
Sequence (P10636 623-653 limits assumed): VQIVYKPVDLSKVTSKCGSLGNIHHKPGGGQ
result_type: EC50 (µM)
Entry rule: numbers only, all in µM.

Study these solved cases before continuing.
- compound: "O=C1C(c2cccnc2)=C(c2ccoc2)c2ccc(OCCCCc3ccccc3)cc21 [Compound 39]"
  scale_unit: "µM"
  val: 10.7
- compound: "O=C1C(c2cccnc2)=C(c2ccoc2)c2ccc(OCCCc3ccccc3)cc21 [Compound 9]"
  scale_unit: "µM"
  val: 53.6
- compound: "Cc1scnc1C1=C(c2ccc(C(F)(F)F)cc2)C(=O)c2cc(OCCOc3ccc4c(c3)OCO4)ccc21 [Compound 34]"
  scale_unit: "µM"
  val: 426
- compound: "Cc1ncsc1C1=C(c2cccnc2)C(=O)c2cc(OCCCCc3ccccc3)ccc21 [Compound 15]"
  scale_unit: "µM"
  val: 59.8
- compound: "Cc1scnc1C1=C(c2cccnc2)C(=O)c2cc(OCCCc3ccccc3)ccc21 [Compound 8]"
  scale_unit: "µM"
  val: 4.2
- compound: "Cc1ncsc1C1=C(Br)C(=O)c2cc(OCCCc3ccccc3)ccc21 [Compound 3]"
  scale_unit: "µM"
  val: 8.5
- compound: "Cc1scnc1C1=C(c2cccs2)C(=O)c2cc(OCCOc3ccccc3)ccc21 [Compound 31]"
  scale_unit: "µM"
  val: 166

Let us move to another entry and its EC50.
-- ask # get_value(readout='EC50', item= Cc1ncsc1C1=C(c2cccnc2)C(=O)c2cc(OCCOc3ccccc3)ccc21 [Compound 17] )
-- reply 19.2
